Assay: Metabolic stability in cynomolgus monkey liver microsomes assessed as half-life
Format: ADME, Macaca fascicularis, Microsome
property.measured: half-life

> print(dat)
                                item.smiles  experimental.result
1  CCC[C@@H](CCO)Nc1nc(N)nc2cnn(Cc3ccc(CNC4CCOCC4)cc3OC)c12               16 min

###

Target: Toll-like receptor 7 (Mus musculus, UniProt P58681)
Sequence (P58681 whole entry): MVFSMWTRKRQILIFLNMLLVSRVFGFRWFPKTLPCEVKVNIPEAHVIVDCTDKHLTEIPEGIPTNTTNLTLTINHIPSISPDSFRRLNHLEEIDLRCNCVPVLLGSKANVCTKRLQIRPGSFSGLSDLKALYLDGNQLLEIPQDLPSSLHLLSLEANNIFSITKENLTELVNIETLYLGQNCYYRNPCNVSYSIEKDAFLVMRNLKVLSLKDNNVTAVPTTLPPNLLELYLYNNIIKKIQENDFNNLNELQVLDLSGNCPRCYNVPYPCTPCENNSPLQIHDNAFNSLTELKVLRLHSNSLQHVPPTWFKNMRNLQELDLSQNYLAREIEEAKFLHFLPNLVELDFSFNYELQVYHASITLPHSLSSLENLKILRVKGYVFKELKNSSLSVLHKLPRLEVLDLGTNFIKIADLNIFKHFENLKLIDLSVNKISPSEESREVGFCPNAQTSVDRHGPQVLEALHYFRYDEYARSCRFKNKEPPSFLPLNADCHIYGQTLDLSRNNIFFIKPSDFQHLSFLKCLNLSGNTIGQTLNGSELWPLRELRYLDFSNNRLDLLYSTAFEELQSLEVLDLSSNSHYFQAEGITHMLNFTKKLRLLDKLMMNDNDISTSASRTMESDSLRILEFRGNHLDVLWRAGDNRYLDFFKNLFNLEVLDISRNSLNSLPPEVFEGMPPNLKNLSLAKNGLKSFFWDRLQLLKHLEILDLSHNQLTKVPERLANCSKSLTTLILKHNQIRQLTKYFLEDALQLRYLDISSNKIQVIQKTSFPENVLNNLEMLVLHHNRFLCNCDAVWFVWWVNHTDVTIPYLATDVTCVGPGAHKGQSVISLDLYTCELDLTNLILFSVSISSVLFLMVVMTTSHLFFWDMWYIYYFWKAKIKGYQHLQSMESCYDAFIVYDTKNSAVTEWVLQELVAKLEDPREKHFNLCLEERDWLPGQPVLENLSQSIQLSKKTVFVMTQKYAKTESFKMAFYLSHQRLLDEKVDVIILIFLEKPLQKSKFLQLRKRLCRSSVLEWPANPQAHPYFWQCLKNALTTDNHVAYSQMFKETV
pEC50: −log10 of the molar value.
Each entry below carries its recorded pEC50.
property.measured: pEC50

> print(dat)
                                item.smiles  inequality.operator  experimental.result
1  CCCCNc1nc(N)nc2cnn(Cc3ccc(CNC4CCOCC4)cc3OC)c12                    =                 6.34
2  CCC[C@@H](CCO)Nc1nc(N)nc2cnn(Cc3ccc(CNC4CCOCC4)nc3)c12                    <                 5.30
3  CCC[C@@H](CCO)Nc1nc(N)nc2cnn(Cc3ccc(CNC4CCOCC4)cc3)c12                    <                 5.30
4  CCCCNc1nc(N)nc2cnn(Cc3ccc(CN4CCCCC4)cc3OC)c12                    =                 6.65
